- tested on: T1, canine OX40L, full length membrane form, expressed on HEK293 cells (canine)
- T1 construct: also called OX40L expressing HEK; HEK OX40L cells
- T1 chain: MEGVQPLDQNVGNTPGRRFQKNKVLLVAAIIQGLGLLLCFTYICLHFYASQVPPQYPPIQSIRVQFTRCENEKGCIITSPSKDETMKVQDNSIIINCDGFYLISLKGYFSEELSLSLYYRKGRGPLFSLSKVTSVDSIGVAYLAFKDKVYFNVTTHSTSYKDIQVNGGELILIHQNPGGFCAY
- assay remarks: flow cytometry
readout type: GEO mean OX40L expressing HEK
Could you keep your reply to the number by itself?

Worked set:
PMX040 (antibody, V domains shown, also called PMX40) VH: EVQLVESGGDLVKPGGSLRLSCVASGFTFSNFEMYWVRQAPGKGLEWVARIYESGTTTYHAEGVKGRFTISKDNVKNMAYLQMNSLRAEDTAVYYCTSASSSSWRFDYWGQGTLVTVSS VL: SYVLTQLPSVSVTLRQTARITCGGDSIGRKNVCWFQQKLGQAPILIIYDDSSRPSGIPERFSGANSGNTATLTISGALAEDEADYYCQVWDSSTGIFGGGTHLTVL    1.18e+06
PMX291 (antibody, V domains shown) VH: EVQLVESGGDLLKPGGSLRLSCVASGFPFRNYDMTWVRQAPGKGLQWVAAIHYDGSNTYYTDAVKGRFTISRDNARNTVFLQMNSLRAEDTAVYYCAKKFNNYRPFDYWGQGTLVTVSS VL: DIVMTQTPPSLSVSPRETPSISCKASQSLLRSDGNTYLEWYLQKPGQSPQLLIYLVSNRFTGVSDRFSGSGSGTDFTLRISRVEANDAGVYYCGQGTQLPWTFGAGTKVELK    463000

Attention now turns to another entry.
Summary for this binder, PMX035 (antibody, V domains shown, also called PMX35) VH: EVQLVESGGDLVKPGGSLRLSCVASGFTFSNFEMYWVRQAPGKGLEWVARIYKSGSTTYHSERVKGRFTISKDSATNMAFLQMNSLRAEDTAVYYCTSASSTGWRFDYWGQGTLVTVSS VL: SYVLTQLPSVSVTLRQTARITCGGDSIGRKNVCWFQQKLGQAPVLIIYDDNSRPSGIPERFSGANSGNTATLTISGALAEDEADYYCQVWDSSTGIFGGGTHLTVL : GEO mean OX40L expressing HEK is 1.41e+06
